System name: hAT1R (Homo sapiens, UniProt P30556)
Sequence (P30556 1-359): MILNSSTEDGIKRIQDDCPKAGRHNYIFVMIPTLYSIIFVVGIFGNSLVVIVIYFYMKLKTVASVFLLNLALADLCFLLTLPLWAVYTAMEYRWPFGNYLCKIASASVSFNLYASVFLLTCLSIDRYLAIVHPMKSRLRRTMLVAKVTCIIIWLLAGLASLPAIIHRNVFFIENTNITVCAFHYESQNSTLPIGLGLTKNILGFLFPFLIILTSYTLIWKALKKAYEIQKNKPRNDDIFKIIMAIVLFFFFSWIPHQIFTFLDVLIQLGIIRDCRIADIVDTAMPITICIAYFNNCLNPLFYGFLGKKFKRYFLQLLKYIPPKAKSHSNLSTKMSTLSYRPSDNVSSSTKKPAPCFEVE
Test name: FLIPR calcium flux assay, Part II: antagonist activity against Angiotensin II
Format: cell-based
Measurement context: read-out: hAT1R Antagonist Efficacy Antag (%) Ave
Residues, ends and D or L forms follow the SMILES beside them.
Endpoint: Emax
Answer format reminder: number followed by unit.

# count of solved cases: 2
- Molecule: "CNCC(=O)N[C@@H](CCCNC(=N)N)C(=O)N[C@H](C(=O)N[C@@H](Cc1ccc(O)cc1)C(=O)N[C@H](C(=O)N[C@@H](Cc1c[nH]cn1)C(=O)N1CCC[C@H]1C(=O)N[C@H](Cc1ccccc1C#N)C(=O)O)C(C)C)C(C)C [Compound 5] (HELM PEPTIDE1{[Sar].R.V.Y.V.H.P.[N#Cc1ccccc1C[C@@H](N[*:1])C(=O)O]}$$$$V2.0)"
  System name: "hAT1R (Homo sapiens, UniProt P30556)"
  Emax: "100%"
- Molecule: "CNCC(=O)N[C@@H](CCCNC(=N)N)C(=O)N[C@H](C(=O)N[C@@H](Cc1ccc(O)cc1)C(=O)N[C@@H](Cc1ccccc1)C(=O)N[C@@H](Cc1c[nH]cn1)C(=O)N1CCC[C@H]1C(=O)N[C@H](Cc1cccc2ccccc12)C(=O)O)C(C)C [Compound 16, Sar-Arg-Val-Tyr-Phe-His-Pro-(D-1Nal)-OH] (HELM PEPTIDE1{[Sar].R.V.Y.F.H.P.[O=C(O)[C@@H](Cc1cccc2ccccc12)N[*:1]]}$$$$V2.0)"
  System name: "hAT1R (Homo sapiens, UniProt P30556)"
  Emax: "99%"

Please look at the following molecule next.
Task: Can you look up the measured Emax of CNCC(=O)N[C@@H](CCCNC(=N)N)C(=O)N[C@H](C(=O)N[C@@H](Cc1ccc(O)cc1)C(=O)N[C@H](C(=O)N[C@@H](Cc1c[nH]cn1)C(=O)N1CCC[C@H]1C(=O)N[C@H](Cc1cccc2ccccc12)C(=O)O)C(C)C)C(C)C [Compound 1, Sar-Arg-Val-Tyr-Val-His-Pro-(D-1Nal)-OH] (HELM PEPTIDE1{[Sar].R.V.Y.V.H.P.[O=C(O)[C@@H](Cc1cccc2ccccc12)N[*:1]]}$$$$V2.0) for me?
Output: 99%

====

System name: hAT1R (Homo sapiens, UniProt P30556)
Test name: FLIPR calcium flux assay, Part II: antagonist activity against Angiotensin II
Type: cell-based
Measurement context: read-out: hAT1R Antagonist IC50 Ave
Procedure: AT1 receptor (AT1R) agonists increase intracellular flux of calcium ions. AT1R antagonists can reduce the agonist effect. […] Intracellular flux of calcium in response to agonist was measured through real-time measurement of fluorescence induced through the interaction of Ca2+ (released from intracellular stores) and calcium-sensitive dye. In Part I, cells were exposed to varying concentrations of test compounds and immediately measured for agonist activity (EC50 and Efficacy). […]
Residues, ends and D or L forms follow the SMILES beside them.
Endpoint: pIC50
Would you please state pIC50, meaning minus log10 of the concentration in mol/L, as a bare number?

Solved entries:
- Compound: "CC(C)[C@H](NC(=O)[C@H](CCCNC(=N)N)NC(=O)CNC[C@H](O)[C@@H](O)[C@H](O)[C@H](O)CO)C(=O)N[C@@H](Cc1ccc(O)cc1)C(=O)N[C@H](C(=O)N[C@@H](Cc1c[nH]cn1)C(=O)N1CCC[C@H]1C(=O)N[C@H](Cc1ccccc1Cl)C(=O)O)C(C)C [Compound 29] (HELM PEPTIDE1{[O=C(CNC[C@H](O)[C@@H](O)[C@H](O)[C@H](O)CO)[*:2]].R.V.Y.V.H.P.[O=C(O)[C@@H](Cc1ccccc1Cl)N[*:1]]}$$$$V2.0)"
  System name: "hAT1R (Homo sapiens, UniProt P30556)"
  pIC50: 7.71
- Compound: "CNCC(=O)N[C@@H](CCCNC(=N)N)C(=O)N[C@H](C(=O)N[C@@H](Cc1ccc(O)cc1)C(=O)N[C@H](C(=O)N[C@@H](Cc1c[nH]cn1)C(=O)N1CCC[C@H]1C(=O)N[C@H](Cc1ccccc1C)C(=O)O)C(C)C)C(C)C [Compound 9] (HELM PEPTIDE1{[Sar].R.V.Y.V.H.P.[Cc1ccccc1C[C@@H](N[*:1])C(=O)O]}$$$$V2.0)"
  System name: "hAT1R (Homo sapiens, UniProt P30556)"
  pIC50: 7.86
- Compound: "CNCC(=O)N[C@@H](CCCNC(=N)N)C(=O)N[C@H](C(=O)N[C@@H](Cc1ccc(O)cc1)C(=O)N[C@@H](Cc1ccsc1)C(=O)N[C@@H](Cc1c[nH]cn1)C(=O)N1CCC[C@H]1C(=O)N[C@H](Cc1ccccc1Cl)C(=O)O)C(C)C [Compound 22] (HELM PEPTIDE1{[Sar].R.V.Y.[O=C([C@H](Cc1ccsc1)N[*:1])[*:2]].H.P.[O=C(O)[C@@H](Cc1ccccc1Cl)N[*:1]]}$$$$V2.0)"
  System name: "hAT1R (Homo sapiens, UniProt P30556)"
  pIC50: 8.30
- Compound: "CC(C)[C@H](NC(=O)[C@H](CCCNC(=N)N)NC(=O)CNC[C@H](O)[C@@H](O)[C@H](O)[C@H](O)CO)C(=O)N[C@@H](Cc1ccc(O)cc1)C(=O)N[C@H](C(=O)N[C@@H](Cc1c[nH]cn1)C(=O)N1CCC[C@H]1C(=O)N[C@H](Cc1csc2ccccc12)C(=O)O)C(C)C [Compound 38] (HELM PEPTIDE1{[O=C(CNC[C@H](O)[C@@H](O)[C@H](O)[C@H](O)CO)[*:2]].R.V.Y.V.H.P.[O=C(O)[C@@H](Cc1csc2ccccc12)N[*:1]]}$$$$V2.0)"
  System name: "hAT1R (Homo sapiens, UniProt P30556)"
  pIC50: 7.73

Kindly consider the entry below.
Task: What does the data say about its pIC50? Entry: CNCC(=O)N[C@@H](CCCNC(=N)N)C(=O)N[C@H](C(=O)N[C@@H](Cc1ccc(O)cc1)C(=O)N[C@H](C(=O)N[C@@H](Cc1c[nH]cn1)C(=O)N1CCC[C@H]1C(=O)N[C@H](Cc1csc2ccccc12)C(=O)O)C1CCCCC1)C(C)C [Compound 35] (HELM PEPTIDE1{[Sar].R.V.Y.[O=C([C@@H](N[*:1])C1CCCCC1)[*:2]].H.P.[O=C(O)[C@@H](Cc1csc2ccccc12)N[*:1]]}$$$$V2.0)
Output: 7.84
